Ref: patent US20260166168A1

TARGET SYSTEM: T1, recombinant extracellular domain protein of human DLL3 (h.DLL3-ECD-His) (human, UniProt Q9NYJ7 27-492)
T1 construct: extracellular domain; Commercial protein; also called human DLL3 antigen; not shown: His tag
T1 sequence (looked up): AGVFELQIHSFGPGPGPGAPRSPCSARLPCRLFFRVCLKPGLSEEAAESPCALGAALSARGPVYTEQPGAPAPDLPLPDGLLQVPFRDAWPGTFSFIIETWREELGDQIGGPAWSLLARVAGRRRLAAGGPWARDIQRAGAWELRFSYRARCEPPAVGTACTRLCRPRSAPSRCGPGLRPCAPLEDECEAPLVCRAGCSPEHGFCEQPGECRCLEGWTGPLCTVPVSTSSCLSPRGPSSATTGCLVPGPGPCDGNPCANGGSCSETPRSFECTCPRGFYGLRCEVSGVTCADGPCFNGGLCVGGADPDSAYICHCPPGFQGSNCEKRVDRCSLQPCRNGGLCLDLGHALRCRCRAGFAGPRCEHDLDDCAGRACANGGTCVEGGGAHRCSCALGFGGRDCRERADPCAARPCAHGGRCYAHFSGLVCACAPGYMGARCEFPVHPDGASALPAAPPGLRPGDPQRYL
METHOD DESCRIPTION: ELISA, coated hDLL3-ECD-his, murine antibody titrated
Below, each entry is listed with its recorded EC50.
Just the number in ng/mL, nothing appended.

Data request: What does the data say about its EC50? Entry: murine antibody 87F7F10 (antibody, V domains shown, Murine antibody purified from hybridoma supernatant) VH: DVQLQESGPGLVKPSQSLSLTCSVTGYSITSDFYWNWIRQFPGNKLEWMGYITYDGSTNYDPSLKNRISITRDTSKNQFFLKLNSVTAEDTATYYCVYGDFNRHAMDYWGQGTSVTVSS VL: DIVMSQSPSSLAVSAGEKVTMSCRSSQSLFNSRTRKNYLAWYQQKPGQPPKVLIYWASTRESGVPDRFTGSGSGTDFTLTISSVQAEDLAVYYCEQSFYLFTFGTGTKLEI
Data returned: 1.68

Data request: Can you share its EC50? I mean this binder: murine antibody 6F11C10 (antibody, V domains shown, Murine antibody purified from hybridoma supernatant) VH: EVHLQQSGPVLVKPGPSVKISCKASGFTFTDYYMHWVKQSHGKSLEWIGLVYPYNGDISYNQKFKGKATLTVDTSSSTAYMELNSLTSEDSAVYYCARQGNYVNNAIDYWGQGTSVTVSS VL: DIVMTQSQKFMSTSVGDRVSISCKASQNVGNIIAWYQQKPGQSPKALIYLASYRYSGVPDRFTGSGSGTDFTLTINNVQSEDLAEYFCQQYSDSPYTFGSGTKLEI
Data returned: 7.59

Data request: Which value of EC50 has been reported for murine antibody 55C11E4 (antibody, V domains shown, Murine antibody purified from hybridoma supernatant) VH: EVQLQQSGPVLVKPGASVKMSCKASGYTFTDYYMNWVKQSHGKSLEWIGVINPYNGGTNYSQKFKGKATLTVDKSSSTAYMELNSLTSEDSAVYYCARDSNYVGLLDYWGQGTSVTVSS VL: DIVLTQSPATLSVTPGDSVSLSCRASQSISNNLHWYQQKSHESPRLLIKYASQSISGIPSRFSGSGSGPDFTLSIDSVETEDFGVYFCQQSNSWPYTFGGGTKLEIK in the records?
Data returned: 56.7

Data request: Reported EC50 for murine antibody 59B10D3 (antibody, V domains shown, Murine antibody purified from hybridoma supernatant) VH: EVKLEESGGGLVQPGGSMKLSCAASGFTFSDAWMDWVRQSPEKGLEWIAEIRNKANNHATYYTESVKGRFTISRDDSKSSVYLQMISLRPEDTGIYYCTRNNYGSTWTYYAMDYWGQGTSVTVSS VL: DIQMTQTSSSLSASLGDRVTINCRASQDISNYLNWYQQKPDGTVKLLIYYTSRLHSGVPSRFSGSGSGTDYSLTISNLEHEDIATYFCQQGYTLPLTFGAGTNLELK : what is it?
Data returned: 1.3
